experiment: Monkey pharmacokinetic study; details: male, Cynomolgus, cynomolgus monkey, plasma, iv, 1 mg/kg, AUCinf, Mean, monkey, PF-00835231 active dosed 1mg/kg intravenous (crossover)
Test readout: AUC(0-inf) (ng·h/mL)

Compound structure string | Unit annotation | Measured number
COc1cccc2[nH]c(C(=O)N[C@@H](CC(C)C)C(=O)N[C@@H](C[C@@H]3CCNC3=O)C(=O)CO)cc12 | ng·h/mL | 583

* * *

biological target: OCT2 (Homo sapiens); experiment: Transporter inhibition using transfected HEK293 cells; conditions: human, HEK293 cells stably transfected with OCT2, pH 7.4, probe [14C]-metformin (20 µM)
Sequence (O15244 whole entry): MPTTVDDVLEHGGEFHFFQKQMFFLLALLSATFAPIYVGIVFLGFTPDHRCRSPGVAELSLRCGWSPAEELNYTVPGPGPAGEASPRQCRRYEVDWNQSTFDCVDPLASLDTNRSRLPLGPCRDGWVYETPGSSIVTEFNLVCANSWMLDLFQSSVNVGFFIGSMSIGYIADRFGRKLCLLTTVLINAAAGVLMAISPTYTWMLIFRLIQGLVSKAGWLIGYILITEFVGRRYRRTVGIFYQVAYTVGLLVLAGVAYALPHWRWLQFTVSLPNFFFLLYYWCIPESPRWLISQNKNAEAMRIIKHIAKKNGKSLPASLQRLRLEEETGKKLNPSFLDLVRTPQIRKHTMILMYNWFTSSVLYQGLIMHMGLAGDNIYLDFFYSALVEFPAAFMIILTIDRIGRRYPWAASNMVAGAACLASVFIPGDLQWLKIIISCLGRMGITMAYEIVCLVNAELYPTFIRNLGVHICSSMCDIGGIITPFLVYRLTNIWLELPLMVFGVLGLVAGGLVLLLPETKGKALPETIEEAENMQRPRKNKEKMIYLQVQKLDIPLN

Compound structure string | Target or test system | IC50
COc1cccc2[nH]c(C(=O)N[C@@H](CC(C)C)C(=O)N[C@@H](C[C@@H]3CCNC3=O)C(=O)CO)cc12 | OCT2 (Homo sapiens) | > 20 µM

* * *

test system: CYP3A4/5; assay: Reversible CYP inhibition in human liver microsomes; settings: human, human liver microsomes, pH 7.4, probe testosterone (tst), Percent of Control Activity, CYP 3A4/5 (tst), 43.8 µM, Zero-Minute Preincubation

Compound structure string | Target or test system | activity at 43.8 µM / %
COc1cccc2[nH]c(C(=O)N[C@@H](CC(C)C)C(=O)N[C@@H](C[C@@H]3CCNC3=O)C(=O)CO)cc12 | CYP3A4/5 | 75.3

* * *

biological target: CYP1A2 (Homo sapiens); assay: Reversible CYP inhibition in human liver microsomes; conditions: human, microsomes, pH 7.4, Percent of Control Activity, CYP 1A2, 15.8 µM, 30-Minute Preincubation
Sequence (P05177 whole entry): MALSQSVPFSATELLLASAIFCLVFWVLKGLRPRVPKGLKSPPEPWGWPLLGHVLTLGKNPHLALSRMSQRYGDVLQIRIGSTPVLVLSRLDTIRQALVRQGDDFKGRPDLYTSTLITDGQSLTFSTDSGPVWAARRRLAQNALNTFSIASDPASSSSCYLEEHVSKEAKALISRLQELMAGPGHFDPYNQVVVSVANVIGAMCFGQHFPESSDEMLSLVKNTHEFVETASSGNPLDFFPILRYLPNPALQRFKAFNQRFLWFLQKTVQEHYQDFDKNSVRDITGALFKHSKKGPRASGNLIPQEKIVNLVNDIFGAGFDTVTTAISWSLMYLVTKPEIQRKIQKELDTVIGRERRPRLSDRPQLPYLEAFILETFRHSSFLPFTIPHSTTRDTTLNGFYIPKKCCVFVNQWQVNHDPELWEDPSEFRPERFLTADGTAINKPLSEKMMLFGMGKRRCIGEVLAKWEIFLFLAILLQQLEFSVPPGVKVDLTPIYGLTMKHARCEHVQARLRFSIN

Compound structure string | Unit annotation | activity at 15.8 µM
COc1cccc2[nH]c(C(=O)N[C@@H](CC(C)C)C(=O)N[C@@H](C[C@@H]3CCNC3=O)C(=O)COP(=O)(O)O)cc12 | % | 102

* * *

target: CYP2C9 (Homo sapiens, UniProt P11712); assay: Reversible CYP inhibition in human liver microsomes; details: human, microsomes, pH 7.4, Percent of Control Activity, CYP 2C9, 4.48 µM, 30-Minute Preincubation
Sequence (P11712 whole entry): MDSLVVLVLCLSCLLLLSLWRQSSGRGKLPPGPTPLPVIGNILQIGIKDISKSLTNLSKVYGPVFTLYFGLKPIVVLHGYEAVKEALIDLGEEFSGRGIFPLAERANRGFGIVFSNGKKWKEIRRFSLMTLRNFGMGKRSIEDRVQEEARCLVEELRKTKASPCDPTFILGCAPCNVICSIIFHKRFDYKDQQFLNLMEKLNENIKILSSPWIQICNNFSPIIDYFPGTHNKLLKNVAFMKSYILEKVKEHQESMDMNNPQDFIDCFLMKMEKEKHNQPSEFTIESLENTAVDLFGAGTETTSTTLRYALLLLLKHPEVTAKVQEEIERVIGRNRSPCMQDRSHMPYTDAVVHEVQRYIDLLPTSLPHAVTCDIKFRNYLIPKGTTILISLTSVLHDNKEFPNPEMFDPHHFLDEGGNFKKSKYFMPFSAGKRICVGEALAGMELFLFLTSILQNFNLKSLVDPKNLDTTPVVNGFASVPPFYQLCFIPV

Compound structure string | activity at 4.48 µM
COc1cccc2[nH]c(C(=O)N[C@@H](CC(C)C)C(=O)N[C@@H](C[C@@H]3CCNC3=O)C(=O)CO)cc12 | 102%

* * *

molecular target: CYP2C19 (Homo sapiens); experiment: Reversible CYP inhibition in human liver microsomes; conditions: human, microsomes, pH 7.4, Percent of Control Activity, CYP 2C19, 0.398 µM, 30-Minute Preincubation

Molecule | Target or test system | activity at 0.398 µM
COc1cccc2[nH]c(C(=O)N[C@@H](CC(C)C)C(=O)N[C@@H](C[C@@H]3CCNC3=O)C(=O)COP(=O)(O)O)cc12 [PF-07304814] | CYP2C19 (Homo sapiens) | 102%

* * *

molecular target: OAT3 (Homo sapiens); experiment: Transporter inhibition using transfected HEK293 cells; conditions: IC50, [3H]ES (0.1 µM)
Sequence (Q8TCC7 whole entry): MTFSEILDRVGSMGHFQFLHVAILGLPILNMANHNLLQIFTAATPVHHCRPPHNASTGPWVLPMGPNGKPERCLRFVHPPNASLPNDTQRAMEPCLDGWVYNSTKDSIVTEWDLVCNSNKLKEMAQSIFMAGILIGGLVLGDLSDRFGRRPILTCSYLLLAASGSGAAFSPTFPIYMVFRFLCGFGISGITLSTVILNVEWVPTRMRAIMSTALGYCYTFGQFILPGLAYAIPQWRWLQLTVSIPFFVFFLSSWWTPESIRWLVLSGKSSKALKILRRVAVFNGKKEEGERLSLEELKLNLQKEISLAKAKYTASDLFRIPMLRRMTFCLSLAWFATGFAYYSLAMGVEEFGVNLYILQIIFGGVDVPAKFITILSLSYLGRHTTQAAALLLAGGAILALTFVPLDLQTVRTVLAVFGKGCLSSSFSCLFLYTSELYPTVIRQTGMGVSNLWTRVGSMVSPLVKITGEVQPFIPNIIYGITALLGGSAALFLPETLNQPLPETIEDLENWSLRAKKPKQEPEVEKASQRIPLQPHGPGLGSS
pIC50: −log10 of the molar value.

Compound structure string | Target or test system | pIC50
COc1cccc2[nH]c(C(=O)N[C@@H](CC(C)C)C(=O)N[C@@H](C[C@@H]3CCNC3=O)C(=O)COP(=O)(O)O)cc12 | OAT3 (Homo sapiens) | < 3.52

* * *

tested on: CYP3A4/5; experiment: Reversible CYP inhibition in human liver microsomes; conditions: human, human liver microsomes, pH 7.4, probe midazolam (mdz), Percent of Control Activity, CYP 3A4/5 (mdz), 1 µM, 30-Minute Preincubation

Compound structure string | Unit annotation | activity at 1 µM
COc1cccc2[nH]c(C(=O)N[C@@H](CC(C)C)C(=O)N[C@@H](C[C@@H]3CCNC3=O)C(=O)COP(=O)(O)O)cc12 | % | 100

* * *

experiment: Rat pharmacokinetic study; conditions: male, Wistar-Hannover, rat, plasma, iv, […], Half life, Mean Data, PF-07304814 prodrug dosed […] intravenous, mean

Compound structure string | half-life
COc1cccc2[nH]c(C(=O)N[C@@H](CC(C)C)C(=O)N[C@@H](C[C@@H]3CCNC3=O)C(=O)COP(=O)(O)O)cc12 | 18 min

* * *

molecular target: CYP2D6 (Homo sapiens, UniProt P10635); assay: Reversible CYP inhibition in human liver microsomes; conditions: human, microsomes, pH 7.4, Percent of Control Activity, CYP 2D6, 0.979 µM, Zero-Minute Preincubation
Sequence (P10635 whole entry): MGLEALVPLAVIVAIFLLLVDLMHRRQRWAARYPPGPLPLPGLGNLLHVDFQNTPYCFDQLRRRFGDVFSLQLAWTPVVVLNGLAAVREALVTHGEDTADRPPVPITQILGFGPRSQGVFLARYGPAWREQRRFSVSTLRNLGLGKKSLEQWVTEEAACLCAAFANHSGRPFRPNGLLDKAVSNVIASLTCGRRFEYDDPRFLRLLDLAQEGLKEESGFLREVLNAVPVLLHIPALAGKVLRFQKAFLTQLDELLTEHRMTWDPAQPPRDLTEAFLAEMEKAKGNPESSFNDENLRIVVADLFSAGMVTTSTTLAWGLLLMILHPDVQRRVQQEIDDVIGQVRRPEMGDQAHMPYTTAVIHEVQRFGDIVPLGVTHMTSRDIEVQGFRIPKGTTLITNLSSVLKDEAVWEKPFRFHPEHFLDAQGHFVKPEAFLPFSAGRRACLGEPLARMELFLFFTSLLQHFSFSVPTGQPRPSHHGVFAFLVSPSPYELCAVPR

Compound | Unit annotation | activity at 0.979 µM
COc1cccc2[nH]c(C(=O)N[C@@H](CC(C)C)C(=O)N[C@@H](C[C@@H]3CCNC3=O)C(=O)CO)cc12 [PF-00835231] | % | 97.7

* * *

tested on: CYP3A4/5; experiment: in vitro; details: human, microsomes, pH 7.4, Percent of Control Activity, CYP 3A4/5 (mdz), 93.5 µM, Zero-Minute Preincubation
Test readout: activity at 93.5 µM (%)

Compound | Target or test system | Unit annotation | Measured number
COc1cccc2[nH]c(C(=O)N[C@@H](CC(C)C)C(=O)N[C@@H](C[C@@H]3CCNC3=O)C(=O)CO)cc12 [PF-00835231] | CYP3A4/5 | % | 107

* * *

target: CYP2C8 (Homo sapiens, UniProt P10632); assay: Reversible CYP inhibition in human liver microsomes; details: human, microsomes, pH 7.4, Percent of Control Activity, CYP 2C8, 0.158 µM, 30-Minute Preincubation
Sequence (P10632 whole entry): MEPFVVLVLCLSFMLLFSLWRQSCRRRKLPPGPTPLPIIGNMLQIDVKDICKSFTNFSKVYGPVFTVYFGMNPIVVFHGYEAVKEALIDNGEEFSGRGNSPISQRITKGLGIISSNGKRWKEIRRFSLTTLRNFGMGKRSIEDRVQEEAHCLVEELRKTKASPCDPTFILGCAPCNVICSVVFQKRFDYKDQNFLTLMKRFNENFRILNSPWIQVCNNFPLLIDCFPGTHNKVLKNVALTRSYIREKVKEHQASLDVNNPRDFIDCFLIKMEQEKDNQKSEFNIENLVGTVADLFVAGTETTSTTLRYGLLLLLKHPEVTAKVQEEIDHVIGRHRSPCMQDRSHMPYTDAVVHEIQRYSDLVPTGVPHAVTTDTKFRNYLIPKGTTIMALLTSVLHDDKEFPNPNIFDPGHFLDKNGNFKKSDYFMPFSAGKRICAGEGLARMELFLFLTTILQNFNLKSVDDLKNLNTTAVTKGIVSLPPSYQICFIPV

Molecule | activity at 0.158 µM / %
COc1cccc2[nH]c(C(=O)N[C@@H](CC(C)C)C(=O)N[C@@H](C[C@@H]3CCNC3=O)C(=O)COP(=O)(O)O)cc12 [PF-07304814] | 90.5

* * *

target: CYP2C19 (Homo sapiens); assay: Reversible CYP inhibition in human liver microsomes; conditions: human, microsomes, pH 7.4, Percent of Control Activity, CYP 2C19, 15.8 µM, 30-Minute Preincubation

Molecule | activity at 15.8 µM
COc1cccc2[nH]c(C(=O)N[C@@H](CC(C)C)C(=O)N[C@@H](C[C@@H]3CCNC3=O)C(=O)COP(=O)(O)O)cc12 [PF-07304814] | 102%

* * *

target: MATE1 (Homo sapiens); experiment: Transporter inhibition using transfected HEK293 cells; conditions: IC50, [14C]Metformin (20 µM)
Sequence (Q96FL8 whole entry): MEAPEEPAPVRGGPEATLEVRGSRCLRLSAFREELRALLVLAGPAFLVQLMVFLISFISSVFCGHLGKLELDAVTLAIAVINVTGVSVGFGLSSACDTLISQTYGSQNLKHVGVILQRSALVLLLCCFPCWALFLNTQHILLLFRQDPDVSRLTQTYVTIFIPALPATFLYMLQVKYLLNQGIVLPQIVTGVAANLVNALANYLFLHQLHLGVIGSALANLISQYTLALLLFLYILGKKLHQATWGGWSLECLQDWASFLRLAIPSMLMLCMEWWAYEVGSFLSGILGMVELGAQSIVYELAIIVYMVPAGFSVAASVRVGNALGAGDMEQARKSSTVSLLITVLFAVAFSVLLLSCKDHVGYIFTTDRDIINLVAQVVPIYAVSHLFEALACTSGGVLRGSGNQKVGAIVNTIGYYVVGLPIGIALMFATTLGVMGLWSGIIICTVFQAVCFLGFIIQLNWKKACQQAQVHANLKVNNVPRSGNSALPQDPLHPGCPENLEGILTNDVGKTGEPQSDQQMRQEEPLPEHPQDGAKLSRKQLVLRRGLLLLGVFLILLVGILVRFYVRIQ
pIC50: −log10 of the molar value.

Compound structure string | Reported relation | pIC50
COc1cccc2[nH]c(C(=O)N[C@@H](CC(C)C)C(=O)N[C@@H](C[C@@H]3CCNC3=O)C(=O)COP(=O)(O)O)cc12 | < | 3.52
COc1cccc2[nH]c(C(=O)N[C@@H](CC(C)C)C(=O)N[C@@H](C[C@@H]3CCNC3=O)C(=O)CO)cc12 | = | 3.76

* * *

biological target: OAT1 (Homo sapiens, UniProt Q4U2R8); assay: Transporter inhibition using transfected HEK293 cells; conditions: human, HEK293 cells transfected with OAT1, pH 7.4, probe [3H] para-aminohippuric acid (0.5 µM)
Sequence (Q4U2R8 whole entry): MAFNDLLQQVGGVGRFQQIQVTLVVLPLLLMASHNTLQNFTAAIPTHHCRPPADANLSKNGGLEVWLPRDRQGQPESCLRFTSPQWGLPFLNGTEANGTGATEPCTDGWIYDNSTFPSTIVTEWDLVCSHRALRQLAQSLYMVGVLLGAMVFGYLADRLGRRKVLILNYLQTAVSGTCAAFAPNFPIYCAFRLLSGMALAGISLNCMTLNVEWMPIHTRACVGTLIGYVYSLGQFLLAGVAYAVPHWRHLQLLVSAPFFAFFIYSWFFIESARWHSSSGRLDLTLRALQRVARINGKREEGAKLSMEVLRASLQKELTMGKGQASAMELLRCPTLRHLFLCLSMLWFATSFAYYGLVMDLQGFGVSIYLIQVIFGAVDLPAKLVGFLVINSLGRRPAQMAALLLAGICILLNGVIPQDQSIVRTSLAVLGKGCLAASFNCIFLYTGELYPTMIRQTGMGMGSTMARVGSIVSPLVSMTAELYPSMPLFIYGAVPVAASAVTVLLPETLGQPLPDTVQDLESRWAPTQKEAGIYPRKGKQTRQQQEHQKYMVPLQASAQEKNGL

Compound structure string | IC50
COc1cccc2[nH]c(C(=O)N[C@@H](CC(C)C)C(=O)N[C@@H](C[C@@H]3CCNC3=O)C(=O)CO)cc12 | > 20 µM

* * *

target: CYP2C9 (Homo sapiens); experiment: Reversible CYP inhibition in human liver microsomes; settings: human, microsomes, pH 7.4, Percent of Control Activity, CYP 2C9, 2.09 µM, Zero-Minute Preincubation

Compound structure string | Target or test system | Unit annotation | activity at 2.09 µM
COc1cccc2[nH]c(C(=O)N[C@@H](CC(C)C)C(=O)N[C@@H](C[C@@H]3CCNC3=O)C(=O)CO)cc12 | CYP2C9 (Homo sapiens) | % | 110

* * *

assay: Rat pharmacokinetic study; settings: male, Wistar-Hannover, rat, plasma, iv, […], Clearance, PF-07304814 prodrug dosed […] intravenous, individual rats

Compound structure string | Unit annotation | clearance
COc1cccc2[nH]c(C(=O)N[C@@H](CC(C)C)C(=O)N[C@@H](C[C@@H]3CCNC3=O)C(=O)COP(=O)(O)O)cc12 | mL/min/kg | 168

* * *

target: CYP2C19 (Homo sapiens); test: Reversible CYP inhibition in human liver microsomes; conditions: human, microsomes, pH 7.4, Percent of Control Activity, CYP 2C19, 1 µM, 30-Minute Preincubation

Compound | Unit annotation | activity at 1 µM
COc1cccc2[nH]c(C(=O)N[C@@H](CC(C)C)C(=O)N[C@@H](C[C@@H]3CCNC3=O)C(=O)COP(=O)(O)O)cc12 [PF-07304814] | % | 101

* * *

biological target: CYP2C19 (Homo sapiens, UniProt P33261); experiment: Reversible CYP inhibition in human liver microsomes; conditions: human, microsomes, pH 7.4, Percent of Control Activity, CYP 2C19, 43.8 µM, 30-Minute Preincubation
Sequence (P33261 whole entry): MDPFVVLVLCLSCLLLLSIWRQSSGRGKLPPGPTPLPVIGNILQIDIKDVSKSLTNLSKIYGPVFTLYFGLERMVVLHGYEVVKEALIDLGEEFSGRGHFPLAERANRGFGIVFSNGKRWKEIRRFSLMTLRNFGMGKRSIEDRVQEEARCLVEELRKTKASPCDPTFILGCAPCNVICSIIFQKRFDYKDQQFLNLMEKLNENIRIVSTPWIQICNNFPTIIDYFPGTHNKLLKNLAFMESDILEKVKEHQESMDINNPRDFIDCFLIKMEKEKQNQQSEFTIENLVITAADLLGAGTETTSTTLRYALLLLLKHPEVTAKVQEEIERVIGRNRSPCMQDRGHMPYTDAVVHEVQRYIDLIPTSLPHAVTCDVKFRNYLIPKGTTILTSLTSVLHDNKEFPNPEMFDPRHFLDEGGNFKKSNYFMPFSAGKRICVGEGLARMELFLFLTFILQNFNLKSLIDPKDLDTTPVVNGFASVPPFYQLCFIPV
Test readout: activity at 43.8 µM (%)

Compound structure string | Target or test system | Test readout | Measured number
COc1cccc2[nH]c(C(=O)N[C@@H](CC(C)C)C(=O)N[C@@H](C[C@@H]3CCNC3=O)C(=O)CO)cc12 | CYP2C19 (Homo sapiens, UniProt P33261) | activity at 43.8 µM | 81.3
